TESTED ON: HIV-1 protease (Human immunodeficiency virus type 1 group M subtype B, UniProt P04585)
Construct: 2.6 nM of HIV-1 protease
ASSAY PROTOCOL: Assay for inhibitory effect on HIV protease (residual enzyme activity, HPLC of substrate cleavage)
Assay type: biochemical
APPLIED CONDITIONS: second order rate constant; HIV-1 protease, pH 5.5; read-out: kina /KI (converted)
READOUT LABEL: kinact/KI (M⁻¹ s⁻¹)
Could you give me the number in M⁻¹ s⁻¹? Just the number is fine.

Query: What measured kinact/KI goes with CC(C)[C@H](NC(=O)C[C@@H]1O[C@@H]1[C@H](Cc1ccccc1)NC(=O)[C@H](CC(N)=O)NC(=O)c1ccc2ccccc2n1)C(N)=O [compound 32] ?
Response: 733000

Query: What measured kinact/KI goes with CC[C@H](C)[C@H](NC(=O)C[C@@H]1O[C@@H]1[C@H](Cc1ccccc1)NC(=O)[C@H](CC(N)=O)NC(=O)c1ccc2ccccc2n1)C(=O)NO [compound 40] ?
Response: 1270

Query: What measured kinact/KI goes with CC(C)CC[C@@H]1O[C@@H]1[C@H](Cc1ccccc1)NC(=O)[C@H](CC(N)=O)NC(=O)c1ccc2ccccc2n1 [compound 70] ?
Response: 6500

Query: What measured kinact/KI goes with NC(=O)C[C@H](NC(=O)c1ccc2ccccc2[n+]1[O-])C(=O)N[C@@H](Cc1ccccc1)[C@H]1O[C@H]1CCc1ccccc1 [compound 64] ?
Response: 417

Query: What measured kinact/KI goes with NC(=O)C[C@H](NC(=O)OCc1ccccc1)C(=O)NC[C@@H]1O[C@@H]1[C@H](Cc1ccccc1)NC(=O)[C@H](CC(N)=O)NC(=O)OCc1ccccc1 [compound 72] ?
Response: 33300

Continuing:
Query: What measured kinact/KI goes with CC(C)[C@H](NC(=O)OCc1ccccc1)C(=O)N[C@@H](Cc1ccccc1)[C@H]1O[C@H]1CCc1ccccc1 [compound 53] ?
Response: 16500

* * *

TESTED ON: HIV-1 protease (Human immunodeficiency virus type 1 group M subtype B, UniProt P04585)
Construct: 2.6 nM of HIV-1 protease
ASSAY PROTOCOL: Assay for inhibitory effect on HIV protease (residual enzyme activity, HPLC of substrate cleavage)
Format: biochemical
READOUT LABEL: Ki (nM)
Could you give me the number in nM? Just the number is fine.

Query: Requested read-out Ki, target or system HIV-1 protease (Human immunodeficiency virus type 1 group M subtype B, UniProt P04585), entry CC(C)[C@H](NC(=O)OCc1ccccc1)C(=O)NC[C@@H]1O[C@@H]1[C@H](Cc1ccccc1)NC(=O)[C@@H](NC(=O)OCc1ccccc1)C(C)C
Response: 0.18

* * *

TESTED ON: HIV-1 protease (Human immunodeficiency virus type 1 group M subtype B)
Construct: 2.6 nM of HIV-1 protease
ASSAY PROTOCOL: Assay for inhibitory effect on HIV protease (residual enzyme activity, HPLC of substrate cleavage)
Type: biochemical
APPLIED CONDITIONS: HIV-1 protease 2.6 nM, pH 5.5; rate constant of covalent bond formation; read-out: kina (converted)
Categorized via kinact: label 0 (below 0.003 s⁻¹), label 1 (0.003 s⁻¹ to below 0.02 s⁻¹), label 2 (0.02 s⁻¹ or more)

Query: Classify this molecule: CC[C@H](C)[C@H](NC(=O)C[C@@H]1O[C@@H]1[C@H](Cc1ccccc1)NC(=O)[C@H](CC(N)=O)NC(=O)COc1ccccc1)C(=O)OC
Response: label 0

Query: Classify this molecule: CC(C)[C@H](NC(=O)C[C@@H]1O[C@@H]1[C@H](Cc1ccccc1)NC(=O)[C@H](CC(N)=O)NC(=O)c1ccc2ccccc2n1)c1ccccc1
Response: label 2

Continuing:
Query: Classify this molecule: CC(C)[C@H](NC(=O)N(C)Cc1ccccn1)C(=O)NC[C@@H]1O[C@@H]1[C@H](Cc1ccccc1)NC(=O)[C@@H](NC(=O)N(C)Cc1ccccn1)C(C)C
Response: label 1

Query: Classify this molecule: CC(C)[C@H](NC(=O)OCc1ccccc1)C(=O)N[C@@H](Cc1ccccc1)[C@H]1O[C@H]1CNC(=O)OC(C)(C)C
Response: label 1

Query: Classify this molecule: NC(=O)C[C@H](NC(=O)OCc1ccccc1)C(=O)NC[C@@H]1O[C@@H]1[C@H](Cc1ccccc1)NC(=O)[C@H](CC(N)=O)NC(=O)OCc1ccccc1
Response: label 1

Query: Classify this molecule: CC(C)[C@H](NC=O)C(=O)NC[C@@H]1O[C@@H]1[C@H](Cc1ccccc1)NC(=O)[C@H](CC(N)=O)NC(=O)c1ccc2ccccc2n1
Response: label 2
